# measurement_notes: Transmittance study of surfactant peptides and peptide/siRNA complexes in aqueous solution
# Type: physicochemical
# condition_set: peptide alone 0.1% (w/v), aqueous solution pH 7.5
experimental_readout: Transmittance (%) Peptide alone 0.1% (w/v)
Could you give me the number in %? Just the number is fine.

Here are 3 substances together with their reported answers.
INSERT INTO measurements (substance, endpoint_value) VALUES
  ('AAAAAK [A5K, exemplary conventional self-assembling peptide for comparison, reference compound]', 99.2),
  ('AAAKAAA [A3KA3]', 99.2),
  ('AAAAAAK [A6K, exemplary conventional self-assembling peptide for comparison, reference compound]', 94.8);

Let me know recorded Transmittance (%) Peptide alone 0.1% (w/v) for A6K2A6: exemplary conventional self-assembling peptide for comparison (AAAAAAKKAAAAAA) [reference compound] , thanks. 98.5

---

# measurement_notes: Transmittance study of surfactant peptides and peptide/siRNA complexes in aqueous solution
# Type: physicochemical
# condition_set: peptide 0.1%/siRNA 0.01%, aqueous solution pH 7.5; * = significantly cloudy and phase-separated
experimental_readout: Transmittance (%) With siRNA (peptide %/siRNA %) 0.1%/0.01%
Could you give me the number in %? Just the number is fine.

INSERT INTO results (substance, endpoint_value) VALUES
  ('AAAKAAA [A3KA3]', 98.7);

As a next step, examine the substance that follows.
Let me know recorded Transmittance (%) With siRNA (peptide %/siRNA %) 0.1%/0.01% for AAAAAK [A5K, exemplary conventional self-assembling peptide for comparison, reference compound] , thanks. 95.5

---

# measurement_notes: Transmittance study of surfactant peptides and peptide/siRNA complexes in aqueous solution
# Format: physicochemical
# condition_set: peptide 0.5%/siRNA 0.05%, aqueous solution pH 7.5; * = significantly cloudy and phase-separated
experimental_readout: Transmittance (%) With siRNA (peptide %/siRNA %) 0.5%/0.05%

INSERT INTO assay_data (substance, endpoint_value) VALUES
  ('AAAAAK [A5K, exemplary conventional self-assembling peptide for comparison, reference compound]', '22.7* %'),
  ('AAAAAAK [A6K, exemplary conventional self-assembling peptide for comparison, reference compound]', '15.3* %'),
  ('A6K2A6: exemplary conventional self-assembling peptide for comparison (AAAAAAKKAAAAAA) [reference compound]', '12.7* %');

As a next step, examine the substance that follows.
Let me know recorded Transmittance (%) With siRNA (peptide %/siRNA %) 0.5%/0.05% for AAAKAAA [A3KA3] , thanks. 88.2%

---

Quick list: Transmittance (%) Peptide alone 0.5% (w/v) per entry.
# measurement_notes: Transmittance study of surfactant peptides and peptide/siRNA complexes in aqueous solution
# Assay type: physicochemical
# condition_set: peptide alone 0.5% (w/v), aqueous solution pH 7.5
Could you give me the number in %? Just the number is fine.

INSERT INTO measurements (substance, unit, endpoint_value) VALUES
  ('A6K2A6: exemplary conventional self-assembling peptide for comparison (AAAAAAKKAAAAAA) [reference compound]', '%', 83.1),
  ('AAAKAAA [A3KA3]', '%', 97.5);

Let me know recorded Transmittance (%) Peptide alone 0.5% (w/v) for AAAAAK [A5K, exemplary conventional self-assembling peptide for comparison, reference compound] , thanks. 71.9

Let me know recorded Transmittance (%) Peptide alone 0.5% (w/v) for AAAAAAK [A6K, exemplary conventional self-assembling peptide for comparison, reference compound] , thanks. 98.7

Source listed as patent US20190231706A1.
